Target: GST-ATAF1 NAC domain (Arabidopsis thaliana, UniProt Q39013 7-158)
Sequence: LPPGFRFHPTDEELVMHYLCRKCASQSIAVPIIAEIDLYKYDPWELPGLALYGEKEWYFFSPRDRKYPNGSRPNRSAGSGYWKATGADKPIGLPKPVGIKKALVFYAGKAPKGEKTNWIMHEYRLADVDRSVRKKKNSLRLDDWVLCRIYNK
Assay: universal protein binding microarray (PBM); transcription factors of Arabidopsis thaliana; high values mean tight binding
Conditions: protein: recombinant; tags: GST; chain copies: 2; dsDNA, one strand shown
Assignment: determine reported binding signal for the given sequences.

Previously resolved entries follow.
ATTGCGTG 0.355 E-score
AAAGGTCA 0.137 E-score
AACACGCT 0.174 E-score
CTTAAGTA 0.207 E-score
CACGCTAC 0.167 E-score

For every listed record, write down its binding signal.
1. GCACGCAA
2. GAAGTCAA

1. 0.277 E-score
2. 0.0967 E-score

For every listed record, write down its binding signal.
1. GCAGTCAA
2. ACCCCGCC
3. AATTTGAC
4. AATGCGTA
5. GAAACGTA
6. CACGTTAG
7. GTTTCGTA

0.0666 E-score
0.253 E-score
0.237 E-score
0.142 E-score
0.224 E-score
0.13 E-score
0.173 E-score

Reference source for all entries: paper PMC4081100
